Cited source: patent US9732075B2

Target: human orexin-1 receptor (Homo sapiens (Human))
Sequence (O43613 whole entry): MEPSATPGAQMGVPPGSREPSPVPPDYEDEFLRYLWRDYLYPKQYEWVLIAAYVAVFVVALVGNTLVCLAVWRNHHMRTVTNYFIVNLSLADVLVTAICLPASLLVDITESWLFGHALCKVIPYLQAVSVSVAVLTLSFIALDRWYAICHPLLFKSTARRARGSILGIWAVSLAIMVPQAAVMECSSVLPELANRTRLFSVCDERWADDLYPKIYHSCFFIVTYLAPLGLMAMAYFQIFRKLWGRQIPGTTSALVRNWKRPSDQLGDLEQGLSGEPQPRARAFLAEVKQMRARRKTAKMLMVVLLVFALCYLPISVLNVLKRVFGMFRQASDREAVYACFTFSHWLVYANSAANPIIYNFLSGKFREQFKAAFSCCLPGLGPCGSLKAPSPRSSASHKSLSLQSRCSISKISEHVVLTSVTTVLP
Experiment: In vitro assay: intracellular calcium measurements (FLIPR), antagonistic activity
Settings: CHO cells expressing human orexin-1 receptor, orexin-A agonist, geometric mean, read-out: IC50 Ox1
Measure Name: IC50 (nM)
Give the number; nM is assumed, so skip it.

GET /values?readout=IC50&system=human orexin-1 receptor (Homo sapiens (Human))&item= Cc1nc(C(=O)N2CCC[C@H]2c2nc3c(O)cccc3[nH]2)c(-c2cccc(Cl)c2)s1 [Ex. 1.12] 273

Can you check COc1cc2nc([C@]3(C)CCCN3C(=O)c3ccc(C)cc3-n3nccn3)[nH]c2cc1OC [Ex. 5.70] next? 31

Can you check Cc1cccc(-c2nc(C(=O)N3CCC[C@@]3(C)c3nc4cc(Cl)c(C(F)(F)F)cc4[nH]3)c(-c3ccc(F)cc3)s2)c1 [Ex. 5.287] next? 53

# evaluate next
GET /values?readout=IC50&system=human orexin-1 receptor (Homo sapiens (Human))&item= C=C1C[C@@H](c2nc3cc(OC)ccc3[nH]2)N(C(=O)c2cc(C)sc2-c2ccc(C)c(C)c2)C1 [Ex. 6.36] 15
